Measurement Target: Serine/threonine-protein kinase 26 (Homo sapiens)
The threshold is inclusive: ΔTm of exactly 0.4 °C counts as yes; values below receive no.

Prompt line: Confirm if ΔTm reported for the compound O=C1Nc2ccccc2/C1=C/c1cnc[nH]1 is 0.4 °C or above.
Response line: yes

Prompt line: Test whether the compound O=C(O)c1cc(NCc2cc(O)ccc2O)ccc1O records ΔTm of 0.4 °C or higher.
Response line: yes

Prompt line: Tell me whether ΔTm is at least 0.4 °C here: Ic1cccc(CSc2nnc(-c3ccncc3)o2)c1
Response line: no

Prompt line: Threshold query (ΔTm >= 0.4 °C) on N#C/C(=C\c1ccc(O)c(O)c1)C(=O)Nc1ccccc1
Response line: no

Prompt line: Is it the case that Cc1ccc(NC(=O)c2cccc(N(C)C)c2)cc1NC(=O)c1ccc(O)cc1 has ΔTm reaching or exceeding 0.4 °C?
Response line: yes

Prompt line: Entry COc1ccc(CNC(=O)Nc2ncc([N+](=O)[O-])s2)cc1 : is its ΔTm no less than 0.4 °C?
Response line: no

Prompt line: Confirm if ΔTm reported for the compound O=C1Nc2ccc(S(=O)(=O)O)cc2/C1=C1/Nc2ccccc2/C1=N\O is 0.4 °C or above.
Response line: yes

Prompt line: Confirm if ΔTm reported for the compound CN[C@@H]1CC2O[C@@](C)([C@@H]1OC)n1c3ccccc3c3c4c(c5c6ccccc6n2c5c31)C(=O)NC4 is 0.4 °C or above.
Response line: yes

Prompt line: Please tell me: is the compound Nc1n[nH]c2nc3ccccc3nc12 at or over 0.4 °C in terms of ΔTm?
Response line: yes

Prompt line: Does the reported ΔTm for COc1cc(C[C@H]2C(=O)OC[C@@H]2Cc2ccc(OC)c(OC)c2)ccc1O fall at or above the 0.4 °C mark?
Response line: no

* * *

Observed Property: ΔTm (°C)
# unit: °C | format: bare number

ΔTm on Serine/threonine-protein kinase PAK 5 (Homo sapiens) for Nc1nc(Nc2ccc(S(N)(=O)=O)cc2)nn1C(=S)Nc1c(F)cccc1F is 5.5

The reported Serine/threonine-protein kinase PAK 5 (Homo sapiens) ΔTm of COc1ccc(CNc2nc(N(CCO)CCO)nc3c2ncn3C(C)C)cc1 is 1.1

Record for N#CCCc1ccc2c(c1)-c1[nH]c3ccc([N+](=O)[O-])cc3c1CC(=O)N2 [ALSTERPAULLONE 2] under target or system Serine/threonine-protein kinase PAK 5 (Homo sapiens): ΔTm reported as 3.9

ΔTm on Serine/threonine-protein kinase PAK 5 (Homo sapiens) for CCCNC(=O)Nc1ccc(Oc2ncnc3cc(OC)c(OC)cc23)cc1Cl [KRN-633] is -0.2

The observed ΔTm for CN[C@@H]1CC2O[C@@](C)([C@@H]1OC)n1c3ccccc3c3c4c(c5c6ccccc6n2c5c31)C(=O)NC4 when tested with Serine/threonine-protein kinase PAK 5 (Homo sapiens) stands at 12.4

The compound CN(C)c1ccc(CC2C(=O)Nc3ccccc32)cc1 (centres undefined) , when measured on Serine/threonine-protein kinase PAK 5 (Homo sapiens), yielded ΔTm of 0.3

Value (ΔTm, Serine/threonine-protein kinase PAK 5 (Homo sapiens)) for record Oc1cccc(-c2nc(N3CCOCC3)c3oc4ncccc4c3n2)c1 = 0.8

# COc1ccc(S(=O)(=O)N(CCO)c2ccccc2CN(C)C/C=C/c2ccc(Cl)cc2)cc1 with Serine/threonine-protein kinase PAK 5 (Homo sapiens): ΔTm is -0.4

Record COc1cc(O)c2c(c1)oc(=O)c1c3cc(O)c(O)cc3oc21 [WEDELOLACTONE] has Serine/threonine-protein kinase PAK 5 (Homo sapiens) ΔTm equal to -0.3

* * *

Measurement Target: Serine/threonine-protein kinase PAK 5 (Homo sapiens) (UniProt Q9P286)
Sequence (Q9P286 whole entry, looked up): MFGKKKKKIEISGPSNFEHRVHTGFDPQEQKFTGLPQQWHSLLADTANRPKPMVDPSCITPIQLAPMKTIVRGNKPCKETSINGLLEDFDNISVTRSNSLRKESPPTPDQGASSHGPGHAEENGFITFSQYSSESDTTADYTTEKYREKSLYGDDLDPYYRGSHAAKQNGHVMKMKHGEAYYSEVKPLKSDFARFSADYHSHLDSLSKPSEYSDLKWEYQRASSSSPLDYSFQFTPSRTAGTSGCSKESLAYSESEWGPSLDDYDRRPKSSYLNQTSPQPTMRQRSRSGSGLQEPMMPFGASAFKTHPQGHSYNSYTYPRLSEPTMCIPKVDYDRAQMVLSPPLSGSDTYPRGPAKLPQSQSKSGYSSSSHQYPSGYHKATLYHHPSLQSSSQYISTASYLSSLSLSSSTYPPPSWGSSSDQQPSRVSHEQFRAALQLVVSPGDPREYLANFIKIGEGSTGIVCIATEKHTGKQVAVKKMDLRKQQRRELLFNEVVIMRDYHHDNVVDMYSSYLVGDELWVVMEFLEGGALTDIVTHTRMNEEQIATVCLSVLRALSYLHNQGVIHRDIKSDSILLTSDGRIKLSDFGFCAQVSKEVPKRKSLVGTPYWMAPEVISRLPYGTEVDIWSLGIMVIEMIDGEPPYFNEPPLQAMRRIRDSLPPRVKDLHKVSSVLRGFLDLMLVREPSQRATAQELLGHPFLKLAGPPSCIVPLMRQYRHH
Note to self: class labels come from recorded ΔTm, ranges listed here: low band: < 0.1 °C; middle band: ≥ 0.1 °C and < 1 °C; high band: ≥ 1 °C

Prompt line: GET /class?item= CN1CCc2[nH]c(=S)c(C#N)c(-c3cccs3)c2C1
Response line: middle band

Prompt line: Band for Cn1cnc2c(NCc3ccccc3)nc(NCCO)nc21 ?
Response line: low band

Prompt line: Category of Cc1ccc(NC(=O)c2cccc(N(C)C)c2)cc1NC(=O)c1ccc(O)cc1 , please.
Response line: middle band

Prompt line: State the band of O=C1NC(=O)c2c1c1c3ccccc3[nH]c1n1cncc21 [ISOGRANULATIMIDE]
Response line: high band

Prompt line: Using the reported ΔTm, which band applies to N=C(N)NCCNS(=O)(=O)c1cccc2cnccc12 ?
Response line: middle band

Prompt line: Sort into band: NS(=O)(=O)c1ccc(Nc2nc(OCC3CCCCC3)c3nc[nH]c3n2)cc1
Response line: high band

Prompt line: Lab log: CC(C)n1cnc2c(NCc3ccccc3)nc(NCCCO)nc21 — assign ΔTm category
Response line: middle band

Prompt line: Into which bin does this compound go? CC(C)(C)c1nc2c3ccc(F)cc3c3c(=O)[nH]ccc3c2[nH]1
Response line: high band

Prompt line: Pick a category. Item: CC(C)n1cnc2/c(=N/c3cccc(Cl)c3)nc(NCCO)[nH]c21
Response line: high band

Prompt line: Dear colleague, I would appreciate it if you could identify the bin for CC(C)c1nn(-c2c(Cl)cccc2Cl)c2nc(Cc3ccc(OCCO)cc3)[nH]c(=O)c12 and reply at your convenience.
Response line: high band

Prompt line: Which class does O=C1NC(=O)C(c2c[nH]c3ccccc23)=C1c1c[nH]c2ccccc12 fall in?
Response line: middle band

Prompt line: Hey, which category is O=C1c2ccccc2-[n+]2ccc3c([nH]c4ccccc43)c21 [FASCAPLYSIN CHLORIDE] in, do you know?
Response line: middle band

Prompt line: Please let me know in which category the item N#C/C(=C(/N)Sc1ccc(N)cc1)c1ccccc1C(F)(F)F belongs.
Response line: middle band

Prompt line: Band assignment needed for O=Nc1c(-c2c(O)[nH]c3ccccc23)[nH]c2ccccc12 please.
Response line: high band

Prompt line: Textbook exercise: identify the category of the compound given here, CN(C)c1ncnc2nc[nH]c12 , according to its measured value.
Response line: low band

Prompt line: Class for CCN1/C(=C/C(C)=O)Sc2ccc(OC)cc21 ?
Response line: low band

Prompt line: Dear colleague, I would appreciate it if you could identify the bin for COc1cc2c(cc1OC)-c1n[nH]c(Nc3cccc(F)c3)c1C2 and reply at your convenience.
Response line: low band

Prompt line: Entry Oc1cc(O)cc(/C=C/c2ccc(O)c(O)c2)c1 belongs to which category?
Response line: low band

Prompt line: Please let me know in which category the item CCN(CC)CCNC(=O)c1c(C)[nH]c(/C=C2\C(=O)Nc3ccc(Cl)cc32)c1C belongs.
Response line: high band

Prompt line: For O=C1NC(=O)c2c1c1c3ccccc3n3c1c1c2c2ccccc2n1C1CCC3O1 , which ΔTm bin applies?
Response line: high band

Prompt line: Which category fits this record: Nc1cccc(-c2cc3c(Oc4cccc(O)c4)ncnc3[nH]2)c1
Response line: high band

Prompt line: # bin lookup: classify Cc1ccc(NC(=O)c2ccc(CN3CCN(C)CC3)cc2)cc1Nc1nccc(-c2cccnc2)n1 by its ΔTm
Response line: low band

Prompt line: Which ΔTm category applies to COC(=O)[C@]1(O)C[C@@H]2O[C@@]1(C)n1c3ccccc3c3c4c(c5c6ccccc6n2c5c31)C(=O)NC4 (single isomer, unassigned) here?
Response line: high band

Prompt line: // bin(item) where item = Ic1cccc(CSc2nnc(-c3ccncc3)o2)c1
Response line: low band

Prompt line: Assign a category based on measured ΔTm for COc1cc(OC)c(/C=C2\C(=O)Nc3ccccc32)c(OC)c1 and give only the class name.
Response line: low band

Prompt line: Please let me know in which category the item CN(C)CC1CCn2c(c(C3=C(c4c[nH]c5ccccc45)C(=O)NC3=O)c3ccccc32)C1 (configuration not stated) belongs.
Response line: middle band

Prompt line: Category lookup for the compound c1ccc(-c2n[nH]c3c2oc2ccccc23)cc1
Response line: middle band

Prompt line: Using the reported ΔTm, which band applies to N#C/C(=C1/Nc2ccccc2S1)c1ccnc(NCCc2cccnc2)n1 ?
Response line: high band

Prompt line: # classify by ΔTm band: NC(=O)c1ccc2[nH]c(-c3ccc(Oc4ccc(Cl)cc4)cc3)nc2c1
Response line: low band

Prompt line: Dear colleague, I would appreciate it if you could identify the bin for NC1=NC(=O)/C(=C2\CCNC(=O)c3[nH]c(Br)cc32)N1 and reply at your convenience.
Response line: middle band

Prompt line: Hi there! Could you help me figure out the category for CCOc1cc(/C=C(\C#N)C(N)=O)cc(CSc2ccccc2)c1O please?
Response line: low band

Prompt line: Could you tell me which band COc1cccc(-c2cc(=O)c3ccccc3o2)c1N belongs to?
Response line: low band

Prompt line: Entry CC(C)c1cc(/C=C(\C#N)C(=O)NCCCc2ccccc2)cc(C(C)C)c1O belongs to which category?
Response line: middle band

Prompt line: Form: Item = Cc1nc(N)sc1-c1ccnc(Nc2cccc([N+](=O)[O-])c2)n1 ; Class = ?
Response line: high band

Prompt line: Looking at O=c1c(-c2ccc(F)cc2)c(-c2ccncc2)[nH]n1-c1ccc(Cl)cc1 , which class would you pick?
Response line: low band

Prompt line: Any idea which band O=C1Nc2cc(Br)ccc2/C1=C1/Nc2ccccc2/C1=N\O is in?
Response line: high band
